System: kinases
method_summary: KINOMEscan kinase binding assay (Eurofins/DiscoveRx), % Ctrl
stated_conditions: 1 μM; FLT3(ITD)
assay_readout: % Ctrl, FLT3(ITD) (% Ctrl)

1. CNC(=O)[C@H]1CN(C)C(=O)c2cc(C)[nH]c2/C=C2\C(=O)Nc3cc(Cl)c(cc32)OCCO1: 52
2. Cc1cc2c([nH]1)/C=C1\C(=O)Nc3ccc(cc31)O[C@@H](C)COCCN(C)C2=O: 45
3. Cc1cc2c([nH]1)/C=C1\C(=O)Nc3ccc(cc31)-c1ccnn1CCOCCNC2=O: 89

1: Cc1cc2c([nH]1)/C=C1\C(=O)Nc3cc(Cl)c(cc31)OCCO[C@@H](C(=O)NC1CNC1)CN(C)C2=O
2: Cc1cc2c([nH]1)/C=C1\C(=O)Nc3cc(Cl)c(cc31)OCCO[C@@H](C(=O)N(C)C)CN(C)C2=O
Which has the smaller recorded % Ctrl, FLT3(ITD), 1 or 2 ? // respond with label for picked entry
1

* * *

tested_on: kinases (Homo sapiens, UniProt P00519, Q252H)
Construct: purchased Eurofins/DiscoveRx; host or cells: E. coli BL21-derived host (T7 phage display) for most kinases; HEK-293 for the rest
method_summary: KINOMEscan kinase binding assay (Eurofins/DiscoveRx), % Ctrl
stated_conditions: target ABL1(Q252H)-phosphorylated; 1 μM
Experimental: Kinase binding assays were performed at Eurofins/DiscoveRx using the general KINOMEscan Protocol (Fabian, M. A. et al., “A small molecule-kinase interaction map for clinical kinase inhibitors,” Nat. Biotechnol. 2005, 23(3):329-36). For most assays, kinase-tagged T7 phage strains were prepared in an E. coli host derived from the BL21 strain. […] The kinase concentration in the eluates was measured by qPCR. […]
assay_readout: % Ctrl, ABL1(Q252H)-phosphorylated (% Ctrl)

1. Cc1cc2c([nH]1)/C=C1\C(=O)Nc3ccc(cc31)-c1c(noc1C)CNCCN(C)C2=O: 5.1
2. Cc1nn(C)c2c1-c1ccc3c(c1)/C(=C/c1[nH]ccc1C(=O)N(C)CCCO2)C(=O)N3: 100
3. Cc1cc2c([nH]1)/C=C1\C(=O)Nc3cc(Cl)c(cc31)OCCO[C@@H](C(=O)N1CCN(C)CC1)CN(C)C2=O: 98

I: Cc1cc2c([nH]1)/C=C1\C(=O)Nc3ccc(cc31)-c1c(C)nn(C)c1COCCN(C)C2=O
II: CN1CCOCCOc2cc3c(cc2Cl)NC(=O)/C3=C\c2[nH]ccc2C1=O
III: CN1CCSCCOc2cc3c(cc2Cl)NC(=O)/C3=C\c2[nH]ccc2C1=O
IV: Cc1cc2c([nH]1)/C=C1\C(=O)Nc3cnc(cc31)-c1cn[nH]c1CNCCN(C)C2=O
Arrange the 4 entries by % Ctrl, ABL1(Q252H)-phosphorylated so the values rise. Answer format: list of labels, ordered as asked.
IV, II, III, I
(IV: 1.7 % Ctrl, II: 5.2 % Ctrl, III: 7.9 % Ctrl, I: 93 % Ctrl)

* * *

tested_on: kinases (Homo sapiens, UniProt P00519)
Construct: purchased Eurofins/DiscoveRx; host or cells: E. coli BL21-derived host (T7 phage display) for most kinases; HEK-293 for the rest
method_summary: KINOMEscan kinase binding assay (Eurofins/DiscoveRx), % Ctrl
stated_conditions: 1 μM; target ABL1-nonphosphorylated
assay_readout: % Ctrl, ABL1-nonphosphorylated (% Ctrl)

I: Cc1cc2c([nH]1)/C=C1\C(=O)Nc3ccc(cc31)-c1c(noc1C(C)C)COCCN(C)C2=O
II: Cc1cc2c([nH]1)/C=C1\C(=O)Nc3cc(Cl)c(cc31)SCCOCCN(C)C2=O
III: Cc1cc2c([nH]1)/C=C1\C(=O)Nc3cnc(cc31)-c1cnn(C)c1CN(C)CCN(C)C2=O
Place the item with the largest % Ctrl, ABL1-nonphosphorylated first, then continue in falling order, using the list above. Answer format: list of labels, ordered as asked.
I, III, II
(I: 100 % Ctrl, III: 0.6 % Ctrl, II: 0 % Ctrl)

A: Cc1cc2c([nH]1)/C=C1\C(=O)Nc3ccc(cc31)-c1cnn(C)c1OCCCN(C)C2=O
B: CN1CCOc2cc3c(cc2Cl)NC(=O)/C3=C\c2[nH]ccc2C(=O)N(C)CC1
Which has the smaller recorded % Ctrl, ABL1-nonphosphorylated, A or B ? // respond with label for picked entry
B
(B: 0.1 % Ctrl, A: 4.1 % Ctrl)

* * *

tested_on: kinases (Homo sapiens, UniProt P36888, D835Y)
Construct: purchased Eurofins/DiscoveRx; host or cells: E. coli BL21-derived host (T7 phage display) for most kinases; HEK-293 for the rest
Sequence (P36888 27-993 D835Y): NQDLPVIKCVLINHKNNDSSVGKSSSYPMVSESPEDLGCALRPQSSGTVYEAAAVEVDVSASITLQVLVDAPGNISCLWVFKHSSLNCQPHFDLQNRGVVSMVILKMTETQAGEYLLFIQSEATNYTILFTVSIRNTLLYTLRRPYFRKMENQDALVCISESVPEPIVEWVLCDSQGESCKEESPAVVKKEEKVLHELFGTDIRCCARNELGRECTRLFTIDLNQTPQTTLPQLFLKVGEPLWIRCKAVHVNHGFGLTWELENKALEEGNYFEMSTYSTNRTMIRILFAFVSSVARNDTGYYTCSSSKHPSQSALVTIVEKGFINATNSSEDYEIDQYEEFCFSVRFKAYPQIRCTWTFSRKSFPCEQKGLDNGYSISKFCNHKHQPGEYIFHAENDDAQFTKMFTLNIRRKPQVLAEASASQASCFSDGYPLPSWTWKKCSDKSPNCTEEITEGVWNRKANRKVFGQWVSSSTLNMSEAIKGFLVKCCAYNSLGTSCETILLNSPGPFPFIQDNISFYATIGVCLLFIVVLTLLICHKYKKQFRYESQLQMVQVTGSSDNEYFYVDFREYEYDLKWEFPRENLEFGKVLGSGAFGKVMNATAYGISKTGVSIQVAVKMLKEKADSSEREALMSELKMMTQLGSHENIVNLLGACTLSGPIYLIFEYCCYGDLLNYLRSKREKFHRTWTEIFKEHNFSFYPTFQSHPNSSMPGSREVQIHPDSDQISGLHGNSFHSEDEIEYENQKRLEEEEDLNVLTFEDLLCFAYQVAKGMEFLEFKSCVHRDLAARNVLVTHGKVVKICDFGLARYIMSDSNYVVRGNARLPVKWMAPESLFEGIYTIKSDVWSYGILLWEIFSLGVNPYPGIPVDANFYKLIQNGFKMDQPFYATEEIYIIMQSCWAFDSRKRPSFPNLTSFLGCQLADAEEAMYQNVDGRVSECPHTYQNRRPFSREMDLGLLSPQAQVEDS
method_summary: KINOMEscan kinase binding assay (Eurofins/DiscoveRx), % Ctrl
stated_conditions: 1 μM; target FLT3(D835Y)
assay_readout: % Ctrl, FLT3(D835Y) (% Ctrl)

1. CN1CCOc2cc3c(cc2Cl)NC(=O)/C3=C\c2[nH]ccc2C(=O)N(C)CC1: 0.5
2. Cc1cc2c([nH]1)/C=C1\C(=O)Nc3cc(Cl)c(cc31)SCCOCCN(C)C2=O: 1.6
3. Cc1cc2c([nH]1)/C=C1\C(=O)Nc3ccc(cc31)-c1cnn(C)c1OCCCN(C)C2=O: 1.9

P: Cc1cc2c([nH]1)/C=C1\C(=O)Nc3cnc(cc31)-c1cnn(C)c1CN(C)CCN(C)C2=O
Q: Cc1cc2c([nH]1)/C=C1\C(=O)Nc3ccc(cc31)-c1c(noc1C(C)C)COCCN(C)C2=O
# returns the entry with the larger % Ctrl, FLT3(D835Y); inputs P and Q // respond with label for picked entry
Q
(Q: 36 % Ctrl, P: 0.1 % Ctrl)

* * *

tested_on: kinases (Homo sapiens, UniProt P10721, D816H)
Construct: purchased Eurofins/DiscoveRx; host or cells: E. coli BL21-derived host (T7 phage display) for most kinases; HEK-293 for the rest
Sequence (P10721 26-976 D816H): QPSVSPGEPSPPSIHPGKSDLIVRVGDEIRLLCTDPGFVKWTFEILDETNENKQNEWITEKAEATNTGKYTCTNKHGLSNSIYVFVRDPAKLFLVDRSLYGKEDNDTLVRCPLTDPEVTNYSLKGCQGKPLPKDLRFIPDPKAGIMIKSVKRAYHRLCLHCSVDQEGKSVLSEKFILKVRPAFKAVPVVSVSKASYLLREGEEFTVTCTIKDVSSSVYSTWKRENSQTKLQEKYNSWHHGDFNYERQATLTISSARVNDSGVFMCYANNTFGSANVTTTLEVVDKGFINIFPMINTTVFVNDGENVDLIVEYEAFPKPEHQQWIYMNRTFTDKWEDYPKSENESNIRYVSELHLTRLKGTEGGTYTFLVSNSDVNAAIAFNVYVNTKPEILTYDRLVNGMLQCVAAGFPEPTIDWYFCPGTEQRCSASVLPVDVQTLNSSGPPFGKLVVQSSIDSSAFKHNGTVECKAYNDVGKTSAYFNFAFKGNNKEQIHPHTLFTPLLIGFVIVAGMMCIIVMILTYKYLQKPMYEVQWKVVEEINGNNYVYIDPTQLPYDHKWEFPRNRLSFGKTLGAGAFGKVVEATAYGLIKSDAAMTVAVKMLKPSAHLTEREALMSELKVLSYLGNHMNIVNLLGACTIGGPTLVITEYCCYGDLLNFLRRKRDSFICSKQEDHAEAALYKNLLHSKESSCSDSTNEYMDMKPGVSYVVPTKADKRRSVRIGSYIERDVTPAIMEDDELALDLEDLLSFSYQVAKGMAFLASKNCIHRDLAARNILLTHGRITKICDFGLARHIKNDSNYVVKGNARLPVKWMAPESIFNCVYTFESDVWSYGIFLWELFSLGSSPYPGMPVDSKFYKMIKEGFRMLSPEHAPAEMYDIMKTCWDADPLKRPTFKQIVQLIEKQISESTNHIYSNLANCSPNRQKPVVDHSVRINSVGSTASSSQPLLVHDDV
method_summary: KINOMEscan kinase binding assay (Eurofins/DiscoveRx), % Ctrl
stated_conditions: 1 μM; KIT(D816H)
Experimental: Kinase binding assays were performed at Eurofins/DiscoveRx using the general KINOMEscan Protocol (Fabian, M. A. et al., “A small molecule-kinase interaction map for clinical kinase inhibitors,” Nat. Biotechnol. 2005, 23(3):329-36). For most assays, kinase-tagged T7 phage strains were prepared in an E. coli host derived from the BL21 strain. […] The kinase concentration in the eluates was measured by qPCR. […]
assay_readout: % Ctrl, KIT(D816H) (% Ctrl)

Please review the entries below; each comes with its answer.
1) Cc1cc2c([nH]1)/C=C1\C(=O)Nc3cc(Cl)c(cc31)OCCO[C@@H](C(=O)NC1CNC1)CN(C)C2=O [Ex. 133]: 43
2) Cc1cc2c([nH]1)/C=C1\C(=O)Nc3ccc(cc31)-c1cnn(C)c1CN(C)CCN(C)C2=O [Ex. 126]: 0
3) Cc1cc2c([nH]1)/C=C1\C(=O)Nc3ccc(cc31)OCCOCCNC2=O [Ex. 129]: 96

P: Cc1cc2c([nH]1)/C=C1\C(=O)Nc3ccc(nc31)-c1ccccc1OCCCNC2=O [Ex.22]
Q: Cc1cc2c([nH]1)/C=C1\C(=O)Nc3cc(Cl)c(cc31)OCCO[C@@H](C(=O)N[C@@H]1CCNC1)CN(C)C2=O [Ex. 136]
R: Cc1cc2c([nH]1)/C=C1\C(=O)Nc3ccc(cc31)-c1cnn(C)c1COCCN(C)C2=O [Ex. 124]
S: Cc1cc2c([nH]1)/C=C1\C(=O)Nc3ccc(cc31)-c1cnn(C)c1CNCCN(C)C2=O [Ex. 125]
T: Cc1cc2c([nH]1)/C=C1\C(=O)Nc3cc(Cl)c(cc31)OCCOCCN(C)C2=O [Ex. 131]
hey, can you rank those compounds up there by % Ctrl, KIT(D816H)? biggest number first please Answer format: list of labels, ordered as asked.
P, Q, T, S, R

The reported measurements were obtained from patent US20230257396A1.
